assay: S16 Schwann cell PMP22 intronic element firefly luciferase assay (AID 624032); conditions: S16 rat Schwann cells, PMP22 element FLuc, 24 h; series mostly up to 57.5 µM; note: nearly all actives have a fitted effect of over 30% in size
Results filed as inconclusive are left out. Calls of active or inactive are those of the source. Calls come from the whole dose curve; as a rule, active = well fitted inhibition curve with a large enough effect; inconclusive = small, poorly fitted or top-dose-only effect; inactive = no such curve, though single readings can be large or run the other way.
Entry note: the call must match one of 1 for active, 0 for inactive

### Prompt Call for entry CCCCNCC(O)c1ccc(O)cc1 (centres undefined) :
### Response 1

### Prompt Queued: `Cc1sc2ccccc2c1CC1=NCCN1`
### Response 0

### Prompt Let us now turn to `O=S(=O)(O)c1cc(O)ccc1O`
### Response 0

### Prompt Thanks! And CCCC(=O)OC(C(Cl)(Cl)Cl)P(=O)(OC)OC (centres undefined) ?
### Response 0

### Prompt Another: C=CCC1(C(C)CCC)C(=O)N=C(S)NC1=O (centres undefined)
### Response 0

### Prompt Next molecule up: [N-]=[N+]=CC(=O)OCC(N)C(=O)O (centres undefined)
### Response 0

### Prompt Item: CN1c2ccccc2C(NCCCCCCC(=O)O)c2ccc(Cl)cc2S1(=O)=O (centres undefined)
### Response 0

### Prompt Same question for CN1[C@@H]2CC[C@H]1CC(OC1c3ccccc3CCc3ccccc31)C2 (some centres undefined) please.
### Response 0

### Prompt Again, but for `C=CCN=C=S`
### Response 0

### Prompt And then `c1ccc2cc(CC3=NCCN3)ccc2c1` , what is it?
### Response 0

### Prompt Now consider `CCOC(=O)c1ccccc1C(=O)OCC` .
### Response 0

### Prompt Repeat for the following molecule: CCCC(C)(COC(N)=O)COC(=O)NC1CC1 (centres undefined)
### Response 0

### Prompt Then what about the molecule `S=C(S)N1CCNCC1` ?
### Response 0

### Prompt Next up: `[Cl-].[Cl-].[Hg+2]`
### Response 1

### Prompt Request: `C[C@@H](Cc1ccccc1)NCCC(c1ccccc1)c1ccccc1`
### Response 0

### Prompt Cool, now O=C1C2CC=CCC2C(=O)N1SC(Cl)(Cl)Cl (centres undefined)
### Response 1

### Prompt Ok, now `Clc1ccccc1Cl`
### Response 0

### Prompt Now try COc1ccc(OC)c(C(O)C(C)N)c1 (centres undefined) .
### Response 0

### Prompt Subsequent entry: `CCOc1ccc2c3c1O[C@H]1[C@@H](O)C=C[C@H]4[C@@H](C2)N(C)CC[C@@]341`
### Response 1

### Prompt Also, C[N+]1(C)C2CCC1CC(OC(=O)c1c[nH]c3ccccc13)C2 (centres undefined) please.
### Response 0

### Prompt Next up: `ClC=C(Cl)Cl`
### Response 0

### Prompt Now try CC(N)Cc1ccc(O)cc1 (centres undefined) .
### Response 1

### Prompt Would you mind doing `Oc1cc(Cl)c(Cl)cc1Cl` as well?
### Response 0

### Prompt Same lookup for `ClC(Cl)(Cl)Cl` , please.
### Response 0

### Prompt Follow-up item: `O=C(O)C(Cl)(Cl)Cl`
### Response 0

### Prompt What do we get for `CC(=O)OO` ?
### Response 0

### Prompt Input `CCOP(=O)(OCC)O/C(=C/Cl)c1ccc(Cl)cc1Cl`
### Response 0

### Prompt What do you have for `O=C1CN(O)C(c2ccccc2)=c2cc(Cl)ccc2=N1` ?
### Response 0

### Prompt Check `CC(C)CCON=O` too.
### Response 0

### Prompt Try `O=P(O)(O)C(Cl)(Cl)P(=O)(O)O` next.
### Response 0

### Prompt Request: `CCC(C)(S(=O)(=O)CC)S(=O)(=O)CC`
### Response 0

### Prompt Here is the next molecule: CNC1(c2ccccc2Cl)CCCCC1=O (centres undefined)
### Response 0

### Prompt CCC(N)Cc1c[nH]c2ccccc12 (centres undefined) , same question.
### Response 0

### Prompt Then this molecule: `O=c1[nH]c(=O)n(Cl)c(=O)n1Cl`
### Response 0

### Prompt Field entry: `c1ccc2sc(SNC3CCCCC3)nc2c1`
### Response 0

### Prompt Check `c1cc2c(c(NC3=NCCN3)c1)CCCC2` too.
### Response 0

### Prompt Cool, now `CNC(=O)Oc1ccccc1C(=O)Nc1ccccc1`
### Response 0

### Prompt Request: `CCC1(CC)C(=O)NC(=O)N(C)C1=O`
### Response 0

### Prompt Also `CCCCCl` ?
### Response 0

### Prompt Follow-up entry: `[O]=[Cd]`
### Response 0

### Prompt What would you report for `O=C(CCl)c1ccc(Oc2ccc(C(=O)CCl)cc2)cc1` ?
### Response 0

### Prompt And for C[C@H]1CC[C@@H]2[C@@H](C)[C@H]3[C@H](C[C@H]4[C@@H]5CC=C6CC(O[C@@H]7O[C@H](CO)[C@H](O)[C@H](O[C@@H]8O[C@H](CO)[C@@H](O)[C@H](O)[C@H]8O)[C@H]7O[C@H]7O[C@@H](C)[C@H](O)[C@@H](O)[C@H]7O)CC[C@]6(C)[C@H]5CC[C@]34C)N2C1 (some centres undefined) ?
### Response 1

### Prompt Also check `O=C(NC(=O)c1c(F)cccc1F)Nc1ccc(Cl)c(Oc2ncc(C(F)(F)F)cc2Cl)c1`
### Response 0

### Prompt // query: `O=C/C=C/c1ccccc1`
### Response 0

### Prompt And what about the molecule `S=C=S` ?
### Response 0

### Prompt Same read-out for `C[CH2][Hg][S]c1ccccc1C(=O)O` ?
### Response 1

### Prompt FC(F)OC(F)(F)C(F)Cl (centres undefined) , same question.
### Response 0

### Prompt Could you do the same for `CN1CCCC(=C(c2cccs2)c2cccs2)C1` , please?
### Response 0

### Prompt One more molecule: `O=Cc1ccco1`
### Response 0

---

assay: qHTS assay for small molecule disruptors of the mitochondrial membrane potential - 5 hr assay (AID 651755); details: JC-1-type ratio dye; series mostly up to 92.2 µM; note: nearly all actives have a fitted effect of over 40% in size
Records with an inconclusive call do not appear. Calls of active or inactive are those of the source. The call rests on the fitted dose curve.
Write down one outcome, taken from Y (active), N (inactive)

### Prompt What classification did `CC(C)CCON=O` end up with in this test?
### Response N

### Prompt Then what about the compound C[C@H]1CC[C@@H]2[C@@H](C)[C@H]3[C@H](C[C@H]4[C@@H]5CC=C6CC(O[C@@H]7O[C@H](CO)[C@H](O)[C@H](O[C@@H]8O[C@H](CO)[C@@H](O)[C@H](O)[C@H]8O)[C@H]7O[C@H]7O[C@@H](C)[C@H](O)[C@@H](O)[C@H]7O)CC[C@]6(C)[C@H]5CC[C@]34C)N2C1 (some centres not stated) ?
### Response Y

### Prompt Next: COc1ccc2c(c1OC)C(=O)OC2C1c2cc3c(cc2CCN1C)OCO3 (configuration not stated)
### Response N

### Prompt Would you mind doing `CCCCCl` as well?
### Response N

### Prompt // repeat for `ClC=C(Cl)Cl` and report
### Response N

### Prompt Next entry: `S=C=S`
### Response N

### Prompt Param item: `O=[N+]([O-])c1ccccc1`
### Response N

### Prompt Queued: `COC1=CC(=O)O[C@@H](/C=C/c2ccccc2)C1`
### Response N

### Prompt Same for `CCCCCCCCOC(=O)c1ccccc1C(=O)OCCCCCCCC`
### Response N

### Prompt And the next one, `Clc1ccccc1Cl` ?
### Response N

### Prompt Now give it for ClCC1CO1 (configuration not stated) too.
### Response N

### Prompt Moving on to `CC(C)Nc1ccc(Nc2ccccc2)cc1`
### Response Y

---

system: CP335; assay: qHTS profiling for inhibitors of Plasmodium falciparum proliferation (AID 504749); note: nearly all actives have a fitted effect of over 60% in size; conditions: P. falciparum in erythrocytes, SYBR Green DNA, 72 h; series mostly up to 28.7 µM
Records with an inconclusive call do not appear. Active and inactive are the calls of the source. The call rests on the fitted dose curve; in most records, active means well fitted inhibition curve with a large enough effect; inconclusive means small, poorly fitted or top-dose-only effect; inactive means flat fitted curve, though single readings scatter.
Give your call using only these classes: active, inactive

### Prompt Could you check what this test reported for `C=CCN(C1=NCCN1)c1c(Cl)cccc1Cl` ?
### Response inactive

### Prompt // repeat for CC(C)(O)C1C2OC(=O)C1C1(O)CC3OC34C(=O)OC2C14C (stereo not drawn) and report
### Response inactive

### Prompt Param item: `CNC(=O)OCC[N+](C)(C)C`
### Response inactive

### Prompt What do you get for COC([CH2][Hg])CNC(=O)c1ccccc1OCC(=O)O (stereo not drawn) ?
### Response inactive

### Prompt Cool, now `Cc1sc2ccccc2c1CC1=NCCN1`
### Response inactive

### Prompt Please do the same for CN1c2ccccc2C(NCCCCCCC(=O)O)c2ccc(Cl)cc2S1(=O)=O (stereo not drawn) as well.
### Response inactive

### Prompt Next up: CCCC(C)(COC(N)=O)COC(=O)NC1CC1 (stereo not drawn)
### Response inactive

### Prompt Request: `S=C=S`
### Response inactive

### Prompt Next compound: `N#CC1(N2CCCCC2)CCCCC1`
### Response inactive

### Prompt Also need C=CCC1(C(C)CCC)C(=O)N=C(S)NC1=O (stereo not drawn) , thanks.
### Response inactive

### Prompt And then `C=CCN1CC[C@]23c4c5ccc(O)c4O[C@H]2[C@@H](O)C=C[C@H]3[C@H]1C5` , what is it?
### Response inactive

### Prompt Please answer likewise for `c1csc(C2(N3CCCCC3)CCCCC2)c1`
### Response inactive

### Prompt Same question for `C[CH2][Hg][S]c1ccccc1C(=O)O` please.
### Response active
